Experiment: Ocular tissue distribution of ketorolac after intracameral OMS302 during IOL replacement in dogs
Type: in vivo, female beagles
Settings: female, beagle, dog, retina, 5.71 mg/eye; eight hours post-procedure; intracameral OMS302 in BSS
quantity_measured: concentration at 8 h
Put your answer as a value accompanied by its unit after it.

Exercise: // fetch concentration at 8 h given entry O=C(c1ccccc1)c1ccc2n1CCC2C(=O)O (racemic) [ketorolac]
Solution: 164 ng/g

* * *

Assay: Ocular tissue distribution of ketorolac after intracameral OMS302 during IOL replacement in dogs
Assay type: in vivo, female beagles
Conditions: female, beagle, dog, retina, 5.71 mg/eye; ketorolac after intracameral OMS302; read-out: retinal half-life (converted)
quantity_measured: half-life

Exercise: // fetch half-life given entry O=C(c1ccccc1)c1ccc2n1CCC2C(=O)O (racemic) [ketorolac]
Solution: ~3.8 h

src = patent US12167999B2
